system: Caenorhabditis elegans N2 infected with Nematocida parisii ERTm1; assay: progeny production relative to DMSO uninfected control; higher = more progeny despite microsporidia infection (inhibition of infection with low host toxicity); conditions: infection time 6 days; 100 µM
measure-name: progeny production (%)
The figure you give is taken to be in %; do not add the unit.

Find the measured progeny production of CCCCc1ccc(C(=O)O)nc1 and report it.
18.3

Tell me measured progeny production for COC(=O)Nc1nc2ccccc2[nH]1 please.
19.7

Provide measured progeny production value, entry: COc1cc(C(C)(C)CCCC(C)C)cc(OC)c1OC
12.1

Report progeny production, nothing else, for this compound: NC1(C(=O)O)CCP(=O)(O)CC1 (stereo not given)
16.6

Complete the entry with progeny production for C[C@@]1(O)[C@H](O)[C@@H](CO)O[C@H]1n1ccc2c(N)ncnc21
15.4
